assay: chemical genetic growth profiling, strain panel (AID 1159580);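 also: tested at 20 µM; growth read once vehicle control cultures reached saturation at 30 °C; 1 = growth at the plate median or of vehicle wells; lower values mean less growth of the strain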; conditions: S. cerevisiae deletion strains, growth OD, locus YGL248W, strain PDE1, stronger effect = lower value
Out of some 5,500 compounds screened, about 2,000 (36%) were called active. Another 18% or so got no clear call; they are omitted. Some of the results follow.
endpoint: normalized growth
The answer should be written as a number, with no unit following it.

Here are 3 compounds together with their reported answers.
compound	endpoint	testResult
NNCCc1ccccc1	normalized growth	0.979
c1ccc2c(c1)CN1CCCC1=N2	normalized growth	1
COc1c2ccoc2nc2c(OC)c(OCC(O)C(C)(C)O)ccc12 (centres undefined)	normalized growth	0.991

What does the data say about its normalized growth? Entry: C=C1C2CCC3(C)C(c4ccoc4)OC(=O)CC13OC1CC(OC(C)=O)C(C)(C)C(CC(=O)OC)C12C (centres undefined)
0.993

// repeat for CCCCSP(=O)(SCCCC)SCCCC and report
1.02

// repeat for NC(N)=NCCCC(NC(=O)C(N)Cc1ccc(O)cc1)C(=O)O (centres undefined) and report
0.997

// repeat for CC1CCC2(OC1)OC1CC3C4CCC5C[C@@H](O)CCC5(C)C4=CCC3(C)C1[C@@H]2C (some centres undefined) and report
0.999

// repeat for COC(=O)CCC(=O)O[C@H]1CCC2(C)C(CCC3C2C(=O)[C@@H](O)C2(C)C3CC3OC4(CCC(C)CO4)[C@@H](C)C32)C1 (some centres undefined) and report
1

// repeat for N#C/C(=C\c1cccc(O)c1)C(=O)O and report
0.984

// repeat for CN[C@@H]1[C@H](OC2[C@H](O[C@H]3[C@H](O)[C@@H](O)[C@H](N=C(N)N)[C@@H](O)[C@@H]3N=C(N)N)O[C@@H](C)[C@]2(O)C=O)O[C@@H](CO)[C@H](O)[C@H]1O (some centres undefined) and report
1.01

* * *

test: chemical genetic growth profiling, strain panel (AID 1159580); conditions: S. cerevisiae deletion strains, growth OD, locus YJR075W, strain HOC1, stronger effect = lower value
In all, about 5,500 compounds went through this assay and about 2,000 (36%) were called active. Inconclusive results (about 18%) are left out. This is one part of the list.
Each record here notes measured normalized growth.
The answer should be written as a number, with no unit following it.

Here are 8 compounds together with their reported answers.
compound	normalized growth
CN(C(=O)CN(CCO)CC(=O)N(C)C(C)(C)Cc1ccccc1)C(C)(C)Cc1ccccc1	0.979
CC(=O)Nc1ccc(C(F)(F)F)cc1Br	0.99
O=C(NCc1nc(-c2ccc(C(F)(F)F)cc2)no1)Nc1ccc(F)cc1F	0.967
COc1ccc(C=C2C(=O)NC(=S)NC2=O)cc1Br	1
NNCCc1ccccc1	0.986
C[C@@H]1CC2C3C[C@H](F)C4=CC(=O)C=C[C@]4(C)[C@@]3(F)[C@@H](O)C[C@]2(C)[C@@]1(O)C(=O)COC(=O)C(C)(C)C (stereo partly specified)	0.997
O=[N+]([O-])c1cccc2cn[nH]c12	1.01
O=C(CSc1nnc(NC(=O)c2cccc([N+](=O)[O-])c2)s1)Nc1ccc2c(c1)OCO2	1.02

What does the data say about its normalized growth? Entry: O=C(O)CC(CC(=O)Nc1ccc(I)cc1F)c1ccc(C(F)(F)F)cc1 (stereo unspecified)
0.943

// repeat for O=C(Nc1nncs1)c1ccncc1 and report
0.991

// repeat for CSc1ccc2c(c1)N(CCC1CCCCN1C)c1ccccc1S2 (stereo unspecified) and report
0.823

* * *

assay: chemical genetic growth profiling, strain panel (AID 1159580); conditions: S. cerevisiae deletion strains, growth OD, locus YNL322C, strain KRE1
The campaign covered roughly 5,500 compounds. About 2,000 (36%) were called active. Not shown: some 18% with an inconclusive outcome. Rule as the data show it: active = normalized growth mostly below about 0.91 (no sharp cut-off); inconclusive = no clear call, values can overlap the other calls; inactive = mostly above about 0.92. The list shows a part of the results.
Choose the fitting class; nothing outside active, inactive is accepted.

Completed entries (count: 5):
compound	labelValue
COc1ccc(C(=O)C2CCNCC2)cc1	inactive
NNC(=O)c1ccccc1O	inactive
CC(=O)O[C@H]1CC[C@]2(C)C3C(=O)[C@@H](OC(C)=O)[C@@]4(C)C(C[C@@H]5O[C@]6(CCC(C)CO6)[C@@H](C)[C@@H]54)C3CC[C@H]2C1 (stereo partly specified)	inactive
Cc1nc2sccn2c(=O)c1CCN1CCC(=C(c2ccccc2)c2ccc(F)cc2)CC1	inactive
COc1c2ccoc2nc2c(OC)c(OCC(O)C(C)(C)O)ccc12 (stereo unspecified)	inactive

For Cc1ccc(OCc2nnc(SCC(=O)Nc3cccc4c3OCO4)n2-c2ccccc2)c2c1CCC2 , which call appears in the assay record?
inactive

* * *

test: chemical genetic growth profiling, strain panel (AID 1159580); settings: S. cerevisiae deletion strains, growth OD, locus YGL227W, strain vid30, stronger effect = lower value
In all, about 5,500 compounds went through this assay and about 2,000 (36%) were called active. Not shown: some 18% with an inconclusive outcome. This is one part of the list.
endpoint: normalized growth
The answer should be written as a number, with no unit following it.

What does the data say about its normalized growth? Entry: C=C1C(C2(C)C=CC(=O)C(C)(C)C2CC(=O)OC)CC[C@@]2(C)[C@H](c3ccoc3)OC(=O)C3OC132 (some centres undefined)
0.999

// repeat for CCCC(C(=O)OCCN(CC)CC)(c1ccccc1)c1ccccc1 and report
1.01

// repeat for C=C1C2=CC(=O)O[C@@H](c3ccoc3)[C@]2(C)CCC1[C@@]1(C)C=CC(=O)C(C)(C)[C@@H]1CC(=O)OC (some centres undefined) and report
0.992

// repeat for C=C1[C@H]2CC[C@@]3(C)[C@H](c4ccoc4)OC(=O)C[C@]13O[C@H]1C[C@H](O)C(C)(C)[C@H](CC(=O)OC)[C@]12C and report
1.03

* * *

assay: chemical genetic growth profiling, strain panel (AID 1159580);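 also: tested at 20 µM; growth read once vehicle control cultures reached saturation at 30 °C; 1 = growth at the plate median or of vehicle wells; lower values mean less growth of the strain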; conditions: S. cerevisiae deletion strains, growth OD, locus YFR028C, strain CDC14
Hit rate of the full screen: of about 5,500 compounds, about 2,000 (36%) were called active. Inconclusive results (about 18%) are left out. Cut-off read from the data, not from the text of the source: active = normalized growth mostly below about 0.91 (no sharp cut-off); inconclusive = no clear call, values can overlap the other calls; inactive = mostly above about 0.92. The list shows a part of the results.
Choose the fitting class; nothing outside 1 = active, -1 = inactive is accepted.

Completed entries (count: 8):
compound	labelValue
Cc1ccc(N2C(=O)CSC2c2ccc(Cl)c(Cl)c2)cc1Cl (configuration not stated)	-1
Oc1ccc(N=Nc2ccccn2)c(O)c1	1
CS(=O)(=O)c1sc(C(=O)Sc2ccc(Cl)cc2)c2c1C=CCC2	1
O=C(CCn1c(=O)oc2ccccc21)Sc1ccc(C(F)(F)F)cc1	-1
N#Cc1ccc(NC(=O)Nc2cccc3ccccc23)cc1	-1
CC1C/C(=N/Nc2ccc(Br)cc2)c2cc(Cl)ccc2S1(=O)=O (configuration not stated)	-1
O=C(CCn1c(=O)oc2ccccc21)Sc1ccc(Cl)cc1Cl	-1
O=[N+]([O-])c1ccc(-c2csc(Nc3ccncc3)n2)cc1	-1

Now examine the next entry.
For O=C1CSC(c2ccc(C(F)(F)F)cc2)N1c1ccc(C(F)(F)F)cc1 (configuration not stated) , which call appears in the assay record?
-1

* * *

assay: chemical genetic growth profiling, strain panel (AID 1159580);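 also: tested at 20 µM; growth read once vehicle control cultures reached saturation at 30 °C; 1 = growth at the plate median or of vehicle wells; lower values mean less growth of the strain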; conditions: S. cerevisiae deletion strains, growth OD, locus YOR144C, strain elg1
The whole screen tested about 5,500 compounds, of which about 2,000 (36%) were called active. Not shown: some 18% with an inconclusive outcome. Cut-off read from the data, not from the text of the source: active = normalized growth mostly below about 0.91 (no sharp cut-off); inconclusive = no clear call, values can overlap the other calls; inactive = mostly above about 0.92. Some of the results follow.
Choose the fitting class; nothing outside true for active, false for inactive is accepted.

molecule	labelValue
CNC(=O)Oc1ccc2c(c1)[C@]1(C)CCN(C)[C@@H]1N2C	false
CN(C)CCOC(=O)COc1ccc(Cl)cc1	false
CN(C)CCOC(=O)C(c1ccccc1)C1(O)CCCC1 (centres undefined)	false
COC(=O)CCCOc1ccc(Cl)cc1Cl	false
COc1ccc(C(=O)CC(=O)c2ccc(C(C)(C)C)cc2)cc1	false
N#C/C(=C\c1cccc(O)c1)C(=O)O	false
CCCC(C(=O)OCCN(CC)CC)(c1ccccc1)c1ccccc1	false
OC1=Cc2c(O)cc(O)cc2OC1(O)c1ccc(O)c(O)c1 (centres undefined)	false

For NS(=O)(=O)c1cc2c(cc1Cl)NC(C1CC3C=CC1C3)NS2(=O)=O (centres undefined) , which call appears in the assay record?
false

// repeat for N[C@@H](Cc1cc(I)c(Oc2cc(I)c(O)c(I)c2)c(I)c1)C(=O)O and report
true

// repeat for COc1cc2c(cc1-c1cc3cc4ccoc4cc3oc1=O)OCO2 and report
false

// repeat for O=C(O)CCCOc1ccc(Cl)cc1Cl and report
false

// repeat for Nc1ccncc1 and report
false

// repeat for CCOC(=O)[C@H](CCc1ccccc1)N[C@@H](C)C(=O)N1Cc2ccccc2C[C@H]1C(=O)O and report
false

* * *

assay: chemical genetic growth profiling, strain panel (AID 1159580);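 also: tested at 20 µM; growth read once vehicle control cultures reached saturation at 30 °C; 1 = growth at the plate median or of vehicle wells; lower values mean less growth of the strain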; settings: S. cerevisiae deletion strains, growth OD, locus YMR219W, strain ESC1, stronger effect = lower value
The whole screen tested about 5,500 compounds, of which about 2,000 (36%) were called active. Roughly 18% stayed inconclusive and do not appear here. This is one part of the list.
Each record here notes measured normalized growth.
The answer should be written as a number, with no unit following it.

Here are 5 molecules together with their reported answers.
smilesText	normalized growth
COc1ccc(CNc2ccccc2-c2nc3ccccc3[nH]2)cc1	0.983
CC(=O)c1ccc(-c2ccc(Cl)c(Cl)c2)o1	0.877
Cc1c(S(=O)(=O)c2ccc(Cl)cc2)csc1S(=O)(=O)N/N=C\c1c(Cl)cccc1Cl	1.01
O=C(Nc1nncs1)c1ccncc1	1
COc1ccc2c(c1)CCCN2C(=O)NC(=O)c1c(F)cccc1Cl	0.997

Read the next record carefully.
What does the data say about its normalized growth? Entry: O=C(CSc1nnc(NC(=O)c2cccc([N+](=O)[O-])c2)s1)Nc1ccc2c(c1)OCO2
1

Numbers sourced from PubChem BioAssay AID1159580.
